Attribution: ChEMBL document CHEMBL1123336

In this section, each of the molecules is paired with its reported ED50.
- Tested on: Rattus norvegicus
- assayNotes: Compound (po) was tested in vivo for inhibition of MAO activity remaining inside (N) DA synaptosomes of rat striatum
- Assay type: functional
Write the answer as a number in µmol/kg, unit excluded.

>>> df
                                   molecule  recordedendpoint  assayvalue
0  CC(N)Cc1ccc2c(c1)CCN2 (stereo not given)              ED50         0.8

Using known records, supply ED50 for `CC(C)(N)Cc1ccc2c(c1)CCN2`
8

###

In this section, each of the compounds is paired with its reported log10 of ED50.
- Organism: Rattus norvegicus
- assayNotes: The lowest dose that release 5-HT causing a serotonin syndrome in rat
- Assay type: functional
Parameter value (number): base-10 log of ED50 in µmol/kg.

                                   compound  assayvalue
0  CCC(N)Cc1ccc2c(c1Cl)CCN2 (stereo not given)        1.45

Using known records, supply log10 of ED50 for Cc1c(CC(C)N)ccc2c1CCN2 (stereo not given)
1.81

Using known records, supply log10 of ED50 for CCN1CCc2c1ccc(CC(C)N)c2C (stereo not given)
1.94

Using known records, supply log10 of ED50 for CC(N)Cc1ccc2c(c1)CCN2 (stereo not given)
1.62

Using known records, supply log10 of ED50 for CCC(N)Cc1ccc2c(c1)CCN2 (stereo not given)
1.81

Using known records, supply log10 of ED50 for CC(N)Cc1ccc2c(c1Cl)CCN2 (stereo not given)
1.77

Using known records, supply log10 of ED50 for `CC(C)(N)Cc1ccc2c(c1)CCN2`
2.11

Using known records, supply log10 of ED50 for Cc1cc(N(C)C)ccc1CC(C)N (stereo not given)
0.88
